- Tested on: MS2 coat protein
- PROTOCOL TEXT: apparent KD of MS2 coat protein; designed switch direction (-1 OFF switch, 1 ON switch): 1; higher = weaker reporter binding
- MEASUREMENT SETUP: input ligand: none

- RESIDUES: "UUGAAGAAUUAAGGAUAUUGAGUACAUAUGUAAAACAUGAGGAUCACCCAUGUGGGUUGCGGUAUCGAGAAGGUAAAUUACUAG [Mat - same State NG 2 - JL mod - D69] (Eterna round: R96, puzzle: Same State NG 2)"
  UOM: "nM"
  apparent KD of MS2 coat protein: 65.9
- RESIDUES: "CCGGAUAAUGGAGGAUAUGGAGCCUUAUUGGCUCCAGAAGGCUAACAUGAGGAUCACCCAUGUUUUCCGGCGGUCAAUAGACCG [Eli NG1ss - 63] (Eterna round: R96, puzzle: Same State NG 1)"
  UOM: "nM"
  apparent KD of MS2 coat protein: 18.2
- RESIDUES: "AAAAUGUGAUGUCACAUGAGGAUCACCCAUGUGGUGACAACUAAGGAUAUAACGAACCAAGGCGAUUAGAAGGUAGGAUCACAA [AK SSNG3-V2-17] (Eterna round: R96, puzzle: Same State NG 3)"
  UOM: "nM"
  apparent KD of MS2 coat protein: 207
- RESIDUES: "GUAGCAUACCGAGGAUAUUCAUAUAAUAAAUAACAUGAGGAUCACCCAUGUAGGCGAAAGCCUUGGGAGAAGGCGGAAUGCUAC [Xeonanis - 20 Mod57] (Eterna round: R96, puzzle: Same State NG 2)"
  UOM: "nM"
  apparent KD of MS2 coat protein: 112

====

Documented apparent KD of MS2 coat protein across a set of sequences
- Tested on: MS2 coat protein
- PROTOCOL TEXT: apparent KD of MS2 coat protein; designed switch direction (-1 OFF switch, 1 ON switch): 1; higher = weaker reporter binding
- MEASUREMENT SETUP: input ligand: FMN 200 uM

- RESIDUES: "CAAGCUUGGGUCUUCCCGCUCGUCUACAAACAUGAGGAUCACCCAUGUAUACUCUUCGCAUCAAUUCUAUCUCUUGG [Onraenbi] (Eterna round: R96, puzzle: Sensor for hsa-mir-208a)"
  UOM: "nM"
  apparent KD of MS2 coat protein: 176
- RESIDUES: "GUUACAUGAGGAUCACCCAUGUGUGUGUGGGAGUGAGUGGCUUAGGAUAUCUAUGAUUUAAGUUAAGAGAAGGGAGAUUGUUGU [SS-NG3-LRO04] (Eterna round: R96, puzzle: Same State NG 3)"
  UOM: "nM"
  apparent KD of MS2 coat protein: 441
- RESIDUES: "CUGAGCAAUCGAGGAUAUCACGUCGAAUAGACGUGAGAAGGCGAUCAUAACAUGAGGAUCACCCAUGUAUUACAUGAAGCUCAG [SSNG1/4-A1] (Eterna round: R96, puzzle: Same State NG 1)"
  UOM: "nM"
  apparent KD of MS2 coat protein: 11.7
- RESIDUES: "CAUCUCCCUUUUACAUGAGGAUCACCCAUGUUUUUAUAUUGAGAGGAUAUCGUAUUUAGAAACAUCGAGAAGGCUCAUUUGUAU [JR_SSNG3_Sub072] (Eterna round: R96, puzzle: Same State NG 3)"
  UOM: "nM"
  apparent KD of MS2 coat protein: 83.2
- RESIDUES: "AAUUAAGAUCUAGGAUAUCACGUCGUUUAGACGUGAGAAGGAGAUCAUAACAUGAGGAUCACCCAUGUAUUACAUGAAUUAAUU [SSNG1/6-B3] (Eterna round: R96, puzzle: Same State NG 1)"
  UOM: "nM"
  apparent KD of MS2 coat protein: 24.2
- RESIDUES: "GGUAGGUUACUACCAGACAUGAGGAUCACCCAUGUAAGUGGGAAGGAUAUGGUACCUUUUAGGUACCAGAAGGUCCAUAUAGUU [JL SSNG3 1.43] (Eterna round: R96, puzzle: Same State NG 3)"
  UOM: "nM"
  apparent KD of MS2 coat protein: 253
- RESIDUES: "UGUUGUAUUACAGGAUAUCUAUUAGUUGUAUUUAGAGAAGGGUAUUCACAUGAGGAUCACCCAUGUAUAUACGAGGAAGUUGUG [JMF's solution 92] (Eterna round: R96, puzzle: Same State NG 1)"
  UOM: "nM"
  apparent KD of MS2 coat protein: 79.8
- RESIDUES: "GGUCGGACUCACAUGAGGAUCACCCAUGUUGCGGAAACGCGGCAGGAUAUCUGUCCGAAAAGGUCAGAGAAGGGCUAACCGACC [Fiskers NG3ss - 56] (Eterna round: R96, puzzle: Same State NG 3)"
  UOM: "nM"
  apparent KD of MS2 coat protein: 52.2
- RESIDUES: "AUUCGUUUGAUAGGAUAUCACUUUACAUGAGGAUCACCCAUGUUCACCACGCUGGUCCCUUAUACUGAGAAGGAUCUUGAUGAC [JR_SSNG2_Sub008] (Eterna round: R96, puzzle: Same State NG 2)"
  UOM: "nM"
  apparent KD of MS2 coat protein: 107
